Recorded values, source the supplement of paper PMC7125110.

B1: glmS ribozyme (parent)
chain: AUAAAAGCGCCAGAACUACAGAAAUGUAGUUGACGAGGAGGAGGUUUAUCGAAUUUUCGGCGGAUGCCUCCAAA

variants of: B1; test: self-cleavage kobs at 640 uM GlcN6P; higher = faster cleavage; RNA array; conditions: with glucosamine-6-phosphate
This sample holds only a part of the variants without activity.
Rule: Condition met for self-cleavage kobs at 640 uM GlcN6P not less than 0.0002 s⁻¹, Condition not met for anything less.

| VARIANT SPEC | QUALITATIVE LABEL |
| --- | --- |
| C34A A42C C70A | Condition not met |
| A6G G40A U54G C67A | Condition not met |
| A14G G35A | Condition not met |
| U54A U65A | Condition met |
| A12C G29A G43U C71G | Condition not met |

Q. Can G38U U69G be said to have self-cleavage kobs at 640 uM GlcN6P at or above 0.0002 s⁻¹?
A. Condition not met

Q. Could you please find out whether A15U G41U G66U C70U has self-cleavage kobs at 640 uM GlcN6P that meets 0.0002 s⁻¹ or exceeds it?
A. Condition not met
